The origin of these recorded values is patent US9340577B2.

Biological target: DR4w4 (DRB1*0401) (Homo sapiens, UniProt P01903+P01911, A100K/A169T/F76Y/I96L/K127E/L162R/M171V/N62H/P40V/Q125Y/R42H/S133A/S149N/S66Y/V115G/V209L/W38E)
Assay: biochemical
Format: binding
No end group written: not given here.
observed property: IC50 (nM)

1) AYGISFMELVRPFKS [Peptide 89.0060] ... 1720
2) DWVMAIFGVNPTVAE [Peptide 89.0079] ... 45
3) FIHFLQGAIISFVNS [Peptide 89.0088] ... 2910
4) LKEFLKGTPKKNCIL [Peptide 89.0086] ... 1620
5) TVEVQFDGDICNTMH [Peptide 90.0167] ... 818
6) AKLMSNLLSIPETCM [Peptide 89.0066] ... 99
7) LKTIIKPHCMYYHMQ [Peptide 89.0119] ... 2000
8) TPEWIERQTVLQHSF [Peptide 89.0048] ... 451
9) IIHLKGDANILKCLR [Peptide 90.0197] ... 64
10) IHFIQGAVISFVNST [Peptide 89.0037] ... 5130
11) LVQLKCPPLLLTSNT [Peptide 89.0077] ... 4030
12) LYGVSFMELIRPFQS [Peptide 89.0041] ... 5210
13) VMAIFGVNPTVAEGF [Peptide 89.0080] ... 77
14) QKCFKKKGITVTVQY [Peptide 90.0026] ... 996
15) GVYYIKDGDTTYYVQ [Peptide 90.0216] ... 2480
16) ESDMAFEYALLADSN [Peptide 90.0055] ... 24
17) EDLRTLQQLFLSTLS [Peptide 1543.21] ... 34
18) FKKFLKGIPKKSCML [Peptide 89.0073] ... 452
19) LKVLIKQHSLYTHLQ [Peptide 89.0061] ... 17
20) GEIYIIEEDTCTMVT [Peptide 90.0202] ... 148
21) Ac-AAAKAAAAAAYAA [Peptide 702.08] ... 348
22) LNTVKIPNTVSVSTG [Peptide 89.0178] ... 824
